# Tested on: A673/TR/shEF
# ASSAY_INFO: cell viability (LOESS-normalised, relative to median of negative controls) (log2 ratio); higher = more viable cells (less compound effect), active = hit call of the paper (over 3 MAD below the median)
# SETUP_CONDITIONS: 2.5 µM; library screen: screen1; EWS-FLI1 expression: high (no doxycycline); treatment time: 72 h
In all, about 3,200 compounds went through this assay and about 300 (9.4%) showed activity. This excerpt belongs to a sample that is enriched for actives.
Each record is given 1.0 if its reported cell viability (log2) is strictly below 0.1. Records at or above 0.1 are given 0.0.

# COMPOUND, SYSTEM_UNDER_TEST, CLASSIFICATION
measured = [
    ("COC(=O)[C@@H]1OC(=O)C2OC23[C@@]1(C)CCC1[C@@]2(C)CCC(=O)C(C)(C)C2C[C@@H](OC(C)=O)[C@]13C (some centres not stated)", "A673/TR/shEF", 0.0),
    ("COc1ccc(C2COc3c(ccc(O)c3OC)C2)c(OC)c1O (configuration not stated)", "A673/TR/shEF", 1.0),
    ("O=C1CSC(=O)N1CCN1C(=O)SC(=Cc2ccc(O)cc2)C1=O", "A673/TR/shEF", 1.0),
    ("O=C(Oc1cc(O)cc2c1CC(OC(=O)c1cc(O)c(O)c(O)c1)C(c1ccc(O)c(O)c1)O2)c1cc(O)c(O)c(O)c1 (configuration not stated)", "A673/TR/shEF", 0.0),
    ("COc1ccccc1NC(=O)C1=C(C)NC(=O)NC1c1ccc(Cl)cc1 (configuration not stated)", "A673/TR/shEF", 1.0),
    ("CC(C)=CCC/C(C)=C/CC/C(C)=C/CO", "A673/TR/shEF", 0.0),
    ("C[C@H]1O[C@@H](O[C@H]2[C@@H](O)C[C@H](O[C@H]3[C@@H](O)C[C@H](O[C@H]4CC[C@@]5(C)[C@H](CC[C@@H]6[C@@H]5CC[C@]5(C)[C@@H](C7=CC(=O)OC7)CC[C@]65O)C4)O[C@@H]3C)O[C@@H]2C)C[C@H](O)[C@@H]1O", "A673/TR/shEF", 1.0),
    ("COc1ccc(OC)c(C2NC(=S)NC(C)=C2C(=O)Nc2ccccc2Cl)c1 (configuration not stated)", "A673/TR/shEF", 0.0),
]

Confirm or reject: cell viability (log2) of N[C@@H](CSCSC[C@H](N)C(=O)O)C(=O)O lies strictly below 0.1
0.0

Is it true that cell viability (log2) reported for C=C(C)/C=C1/C=CC(=O)C(C)=C1 is less than 0.1?
1.0

###

Attribute: cell viability (log2)
# Tested on: A673/TR/shEF
# ASSAY_INFO: cell viability (LOESS-normalised, relative to median of negative controls) (log2 ratio); higher = more viable cells (less compound effect), active = hit call of the paper (over 3 MAD below the median)
# SETUP_CONDITIONS: 2.5 µM; library screen: screen2; EWS-FLI1 expression: high (no doxycycline); treatment time: 72 h
Hit rate of the full screen: of about 3,200 compounds, about 300 (9.4%) showed activity. This excerpt belongs to a sample that is enriched for actives.
The answer should be written as a number, with no unit following it.

Example entries begin here.
# COMPOUND, SYSTEM_UNDER_TEST, ASSAY_READOUT, OBSERVED
rows = [
    ("CC(=O)O[C@H]1CC2(C)[C@@H](C[C@@H](O)[C@H]3[C@@]4(C)CC[C@@H](O)[C@@H](C)[C@@H]4CC[C@@]32C)/C1=C(/CCC=C(C)C)C(=O)O (some centres not stated)", "A673/TR/shEF", "cell viability (log2)", 0.159),
    ("COc1ccc(CCN(C)CCc2ccc(OC)c(OC)c2)cc1OC", "A673/TR/shEF", "cell viability (log2)", 0.198),
    ("CCN(CC)CC(=O)Nc1c(C)cccc1C", "A673/TR/shEF", "cell viability (log2)", 0.0975),
]

Param readout = cell viability (log2); param system = A673/TR/shEF; param query = N=c1ccn2c(n1)O[C@H]1[C@H](O)[C@@H](CO)O[C@H]12 ; response: value
-0.641

What reported cell viability (log2) corresponds to c1ccc(C2CN3CCSC3=N2)cc1 (configuration not stated) on A673/TR/shEF?
0.166

What value of cell viability (log2) on A673/TR/shEF does COc1ccc2c(c1)c(CC(=O)Nc1ccc(NC(C)=O)cc1)c(C)n2C(=O)c1ccc(Cl)cc1 have?
0.0757

Tell me reported cell viability (log2) for N=C(N)c1ccc(N)cc1 , tested with A673/TR/shEF.
0.0987

Fill in the recorded cell viability (log2) for this compound, with A673/TR/shEF as test system: COc1c(C)c2c(c(O)c1C/C=C(\C)CCC(=O)O)C(=O)OC2
0.137
